B1: library; numbered along this chain (parent)
chain: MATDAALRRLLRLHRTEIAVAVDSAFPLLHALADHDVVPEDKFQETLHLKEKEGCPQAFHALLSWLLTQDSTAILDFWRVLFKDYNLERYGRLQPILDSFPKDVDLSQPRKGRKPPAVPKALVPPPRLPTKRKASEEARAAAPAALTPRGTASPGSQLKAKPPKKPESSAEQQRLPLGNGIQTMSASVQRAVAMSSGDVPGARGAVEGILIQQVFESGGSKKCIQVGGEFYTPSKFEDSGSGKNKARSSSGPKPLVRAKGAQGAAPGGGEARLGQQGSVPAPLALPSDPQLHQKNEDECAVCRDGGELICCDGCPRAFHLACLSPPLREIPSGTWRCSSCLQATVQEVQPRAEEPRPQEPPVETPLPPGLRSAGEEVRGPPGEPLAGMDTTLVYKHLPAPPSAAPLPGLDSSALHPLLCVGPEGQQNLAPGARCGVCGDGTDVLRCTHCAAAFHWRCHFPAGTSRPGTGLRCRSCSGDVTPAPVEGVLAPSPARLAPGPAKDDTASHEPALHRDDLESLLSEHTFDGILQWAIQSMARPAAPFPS

# Variants of: B1
# experiment_description: AIRE transcriptional activation functional score (insulin promoter-GFP; nonsense median 0, synonymous median 1) (normalised score); higher = higher AIRE activity (more reporter activation)
# study_conditions: with insulin promoter-GFP reporter in HEK293
Give measured AIRE transcriptional activation functional score for each item. Keep answers brief.
One number for each entry.

Example results:
A317E | 1.37
C299T | 0.711
C302F | 0.63
L177G | -0.4
S187Q | 0.823
V393R | 0.0991
Y85T | 0.418

Next variant, AIRE transcriptional activation functional score to be filled in.
Just so you know, measured AIRE transcriptional activation functional score for "A482K" came out at 1.11
